System: A549-TP53BP1-CLTA
test-summary: phenotypically active (imaging signature differs from DMSO and reproducible) at any of 0.3-9 uM (binary (1 = active, 0 = inactive)); higher = active
experimental-parameters: treatment time: 24 h
Where a name gives a salt, the structure may show the parent alone.
measure: phenotypically active

INPUT: What value of phenotypically active has been recorded for this entry: `c1cc(-c2cc(C3CCNCC3)[nH]n2)ccn1`
OUTPUT: 0 (inactive)

INPUT: Please report the recorded phenotypically active for CNCCCN1c2ccccc2CCc2ccccc21 [desipramine] .
OUTPUT: 0 (inactive)

INPUT: Look up phenotypically active: `Oc1ccc(-c2nc(-c3ccc(F)cc3)c(-c3ccncc3)[nH]2)cc1`
OUTPUT: 1 (active)

INPUT: Quick one: phenotypically active for CC(C)(N)c1cc(C(=O)N[C@@H]2CCc3ccc(OC4=C5CCC(=O)N=C5NC=C4)cc3C2)cc(C(F)(F)F)c1 [ML 786 dihydrochloride] ?
OUTPUT: 1 (active)

INPUT: Given the compound `Cc1cc2nc(NCCCO)n(CC(=O)c3cc(C(C)(C)C)c(O)c(C(C)(C)C)c3)c2cc1C` , what is its reported phenotypically active?
OUTPUT: 0 (inactive)

INPUT: Would you mind telling me what phenotypically active value was observed for CC(C)NC[C@H](O)COc1cccc2ccccc12 [(S)-(-)-Propranolol hydrochloride] ?
OUTPUT: 0 (inactive)

INPUT: Requested read-out: phenotypically active. Entry: NCCNS(=O)(=O)c1cccc2cnccc12 [H-9 dihydrochloride]
OUTPUT: 0 (inactive)

INPUT: // lookup phenotypically active for `Clc1cccc(Nc2nnc(-c3ccccc3)c3ccccc23)c1`
OUTPUT: 0 (inactive)

INPUT: Form field: reported phenotypically active of `NC(=O)c1ncn([C@@H]2O[C@H](CO)[C@@H](O)[C@H]2O)c1N`
OUTPUT: 0 (inactive)

INPUT: Which phenotypically active reading was recorded for the compound O=C1CCc2c(ccc3ccccc23)O1 [Splitomicin] ?
OUTPUT: 0 (inactive)

INPUT: GET /values?readout=phenotypically active&item= `Cc1ccc(-c2c(-c3nn(C)c4ncnc(N5CC[C@H](N6CCCCC6)C5)c34)cnn2C)cc1`
OUTPUT: 0 (inactive)

INPUT: Name the recorded phenotypically active for C=C(C)[C@@H]1CC[C@]2(CO)CC[C@]3(C)[C@H](CC[C@@H]4[C@@]5(C)CC[C@H](O)C(C)(C)[C@@H]5CC[C@]43C)[C@@H]12 [Betulin] .
OUTPUT: 0 (inactive)

INPUT: Quick one: phenotypically active for CN1CCC(=C2c3ccccc3CC(=O)c3sccc32)CC1 [ketotifen] ?
OUTPUT: 1 (active)

INPUT: Would you mind telling me what phenotypically active value was observed for NCC[C@H](O)C(=O)N[C@H]1C[C@@H](N)[C@H](O[C@H]2O[C@H](CN)[C@@H](O)[C@H](O)[C@H]2O)[C@@H](O)[C@@H]1O[C@H]1O[C@H](CO)[C@@H](O)[C@H](N)[C@H]1O [Amikacin hydrate] ?
OUTPUT: 0 (inactive)

INPUT: I am curious: what phenotypically active value has been reported for `Cc1n[nH]c2ccc(-c3cncc(OC[C@@H](N)Cc4ccccc4)c3)cc12` ?
OUTPUT: 1 (active)

INPUT: What value of phenotypically active has been recorded for this entry: `C=CC(=O)N1CCC[C@@H](n2nc(-c3cccc(C(=O)Nc4ccc(C(C)C)c(C)c4)c3)c3c(N)ncnc32)C1`
OUTPUT: 1 (active)

INPUT: Query: phenotypically active; subject: CC(=O)O[C@@]12CO[C@@H]1C[C@H](O)[C@@]1(C)C(=O)[C@H](O)C3=C(C)[C@@H](OC(=O)[C@H](O)[C@@H](NC(=O)OC(C)(C)C)c4ccccc4)C[C@](O)([C@@H](OC(=O)c4ccccc4)[C@H]21)C3(C)C [Docetaxel]
OUTPUT: 1 (active)
